The measured values listed here are drawn from patent US20180168208A1.

# target.desc: T1R1/T1R3 receptor (Felis catus, UniProt E3UMS2)
# method.notes: cell-based
# Type: cell-based
# cond: EC50 + IMP, + IMP (0.2 mM); Table 17
Exercise: for every item that follows, state its recorded EC50.
Reply with just the number (in µM).

Task: Hello, please tell me recorded EC50 for this one: COc1cc(C(=O)NC(C(N)=O)c2ccccc2)cc(Cl)c1OC (centres unmarked)
Result: 680

Task: Identify measured EC50 corresponding to CCC(CC)NC(=O)c1ccc(OC)c(OC)c1 [3,4-dimethoxy-N-(pentan-3-yl)benzamide]
Result: 2000

###

# target.desc: T1R1/T1R3 receptor (Felis catus)
# method.notes: cell-based
# cond: threshold concentration in the presence of 0.2 mM IMP
assay.endpoint: Thres (mM), +IMP (0.2 mM)
Give the value, in units of mM, as a plain number.

Task: For the molecule O=C(NCCCCNC(=O)c1cccnc1)c1cccnc1 [N,N′-(butane-1,4-diyl)dinicotinamide] , give its reported Thres (mM), +IMP (0.2 mM).
Result: 0.1

Task: Identify the reported Thres (mM), +IMP (0.2 mM) for the following entry. `O=C1CC(=O)N(Cc2ccccc2)C(=O)N1Cc1ccccc1`
Result: 0.1

Task: Consider the molecule N[C@@H](CS)C(=O)O [L-Cysteine, cysteine] and give its recorded Thres (mM), +IMP (0.2 mM).
Result: 10.0

Task: Tell me measured Thres (mM), +IMP (0.2 mM) for `COC(=O)[C@H](Cc1ccccc1)NCc1ccccc1.Cl` please.
Result: 0.003

Task: Please report Thres (mM), +IMP (0.2 mM) for the following molecule: N[C@@H](Cc1ccccc1)C(=O)O [L-Phenylalanine, reference compound]
Result: 0.1
